Each recorded value in this set is attributed to patent US12570661B2.

Assay: HEK-293T cytotoxicity (cell viability) assay
Format: cell-based
Details: human, HEK-293T cells; adherent HEK-293T, 4-5 days, CellTiter-Glo; read-out: HEK293T GI50
observation.type: log10 GI50 (log10 of the value in nM)

chemical.structure | log10 GI50
COc1ccccc1-c1ccc(-c2cn(-c3ccccc3OC)c3[n+]2CCCCC3)cc1.[Br-] | 2.20
CCc1cc(Cl)ccc1C1=CN(c2ccc(-c3ccccc3CC)cc2)C2=NCCCN12 | 3.11
COc1ccccc1C1=CN(c2ccc(-c3ccccc3)cc2)C2=NCCCN12 | 3.95
COc1ccccc1N1C=C(c2ccc(-c3ccccc3)cc2)N2CCCCN=C21 | 3.53
CCc1ccccc1C1=CN(c2ccc(-c3ccccc3)cc2)C2=NCCCCN12 | 3.63
COc1ccccc1-n1cc(-c2ccc(-c3ccccc3)cc2)[n+]2c1CCCCC2 | 2.36
CCc1cc(Cl)ccc1C1=CN(c2ccc(-c3ccccc3)cc2)C2=NCCCN12 | 3.18
COc1cc(Cl)ccc1C1=CN(c2ccc(-c3ccccc3)cc2)C2=NCCCCN12 | 3.72
COc1cc(Cl)ccc1C1=CN(c2ccc(-c3ccccc3OC)cc2)C2=NCCCN12 | 3.23
COc1ccccc1C1=CN(c2ccc(-c3ccccc3)cc2)C2=NCCCCN12 | 3.45

====

Target: ALDH1B1 (Homo sapiens, UniProt P30837)
Test: ALDH1B1 enzyme kinetics assay (NADH fluorescence, acetaldehyde substrate)
Assay type: biochemical
Design: made in house; host or cells: E. coli BL21 (optionally co-expressed with GroEL/GroES)
Conditions: 1 μg/mL enzyme, 1 mM acetaldehyde, 1 mM NAD+; read-out: ALDH1B1(in vitro) IC50
pIC50: −log10 of the molar value.
Below is a list of entries, each paired with its recorded pIC50 value.

compound | target.of.assay | pIC50
COc1ccccc1-c1ccc(-c2cn(-c3ccccc3OC)c3[n+]2CCCCC3)cc1.[Br-] | ALDH1B1 (Homo sapiens, UniProt P30837) | 7.33
CCc1ccccc1C1=CN(c2ccc(-c3ccccc3)cc2)C2=NCCCCN12 | ALDH1B1 (Homo sapiens, UniProt P30837) | 7.36
COc1ccccc1C1=CN(c2ccc(-c3ccccc3)cc2)C2=NCCCN12 [STL5-T-0001] | ALDH1B1 (Homo sapiens, UniProt P30837) | 7.01
COc1ccccc1N1C=C(c2ccc(-c3ccccc3)cc2)N2CC(C)(C)CN=C21 | ALDH1B1 (Homo sapiens, UniProt P30837) | 7.09

====

Target: UniProt P30837
Assay: ALDH1B1 enzyme kinetics assay (NADH fluorescence, acetaldehyde substrate)
Type: biochemical
Parameters: made in house; host or cells: E. coli BL21 (optionally co-expressed with GroEL/GroES)
Details: 1 μg/mL enzyme, 1 mM acetaldehyde, 1 mM NAD+; read-out: ALDH1B1(in vitro) IC50
Procedure: Cloning, expression, and purification of human recombinant ALDH1A1, ALDH1A3, ALDH2, ALDH3A1, ALDH3A2, ALDH4A1, ALDH5A1 and ALDH7A1 isozymes were conducted as described previously (Chen, C. H. et al. (2015) Proc. Natl. Acad. Sci. U.S.A. 112, 3074-3079). Human ALDH1A2 (Origene, SC109995) and ALDH1B1 (T. Hurley, Indiana University) plasmids were cloned into the pET-15b expression vector (Novagen, 69661-3) containing an N-terminal hexahistidine tag. […]
pIC50: −log10 of the molar value.
Threshold check on pIC50: at or above 7 gives Satisfied, strictly below gives Not satisfied.

chemical.structure | label.class
COc1cc(Cl)ccc1C1=CN(c2ccc(-c3ccccc3OC)cc2)C2=NCCCN12 | Satisfied
COc1cc(Cl)ccc1C1=CN(c2ccc(-c3ccccc3)cc2)C2=NCCCCN12 | Satisfied
COc1ccccc1-n1cc(-c2ccc(-c3ccccc3)cc2)[n+]2c1CCCCC2 | Satisfied
CCOc1ccc(N2C=C(c3ccc(-c4ccccc4)cc3)N3CCCCN=C32)cc1 | Not satisfied
CCc1cc(Cl)ccc1C1=CN(c2ccc(-c3ccccc3)cc2)C2=NCCCN12 | Satisfied

====

# key: entry, value: IC50
Molecular target: ALDH1B1 (Homo sapiens, UniProt P30837)
Sequence (P30837 18-517): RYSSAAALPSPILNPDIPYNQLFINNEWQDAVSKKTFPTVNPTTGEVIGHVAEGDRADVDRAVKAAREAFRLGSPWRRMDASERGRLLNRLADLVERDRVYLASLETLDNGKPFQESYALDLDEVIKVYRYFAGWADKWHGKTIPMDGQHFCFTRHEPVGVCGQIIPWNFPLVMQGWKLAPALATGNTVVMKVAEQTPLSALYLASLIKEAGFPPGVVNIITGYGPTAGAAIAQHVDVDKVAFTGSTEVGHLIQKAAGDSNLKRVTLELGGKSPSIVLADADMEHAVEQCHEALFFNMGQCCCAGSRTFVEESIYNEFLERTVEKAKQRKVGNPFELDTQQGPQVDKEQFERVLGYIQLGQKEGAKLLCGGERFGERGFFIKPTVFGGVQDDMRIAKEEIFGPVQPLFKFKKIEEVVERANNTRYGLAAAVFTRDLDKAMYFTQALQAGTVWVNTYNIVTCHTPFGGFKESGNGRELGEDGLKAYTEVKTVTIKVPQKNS
Assay: ALDEFLUOR assay of cellular ALDH1B1 activity in ALDH1B1-transfected ALDH1A3−/− A375 cells
Format: cell-based
Conditions: ALDEFLUOR, ALDH1B1-overexpressing ALDH1A3−/− A375 cells; read-out: ALDH1B1(in cellulo) IC50

compound | IC50 [µM]
COc1ccccc1N1C=C(c2ccc(-c3ccccc3)cc2)N2CCCCN=C21 [HPI-269] | 0.11
COc1ccccc1C1=CN(c2ccc(-c3ccccc3)cc2)C2=NCCCN12 [STL5-T-0002] | 0.11
COc1ccccc1C1=CN(c2ccc(-c3ccccc3)cc2)C2=NCCCCN12 [HPI-273] | 0.035
CCOc1ccc(N2C=C(c3ccc(-c4ccccc4)cc3)N3CCCCN=C32)cc1 [Guanidine 73] | 6.7
COc1ccccc1N1C=C(c2ccc(-c3ccccc3)cc2)N2CC(C)(C)CN=C21 [HPI-279] | 0.11
COc1ccccc1-n1cc(-c2ccc(-c3ccccc3)cc2)[n+]2c1CCCCC2 [Imidazolium 2] | 0.038
COc1ccccc1-c1ccc(-c2cn(-c3ccccc3OC)c3[n+]2CCCCC3)cc1.[Br-] [Imidazolium 8] | 0.022

====

Reported IC50 is given for each of the following compounds.
Molecular target: ALDH1B1 (Homo sapiens, UniProt P30837)
Sequence (P30837 18-517): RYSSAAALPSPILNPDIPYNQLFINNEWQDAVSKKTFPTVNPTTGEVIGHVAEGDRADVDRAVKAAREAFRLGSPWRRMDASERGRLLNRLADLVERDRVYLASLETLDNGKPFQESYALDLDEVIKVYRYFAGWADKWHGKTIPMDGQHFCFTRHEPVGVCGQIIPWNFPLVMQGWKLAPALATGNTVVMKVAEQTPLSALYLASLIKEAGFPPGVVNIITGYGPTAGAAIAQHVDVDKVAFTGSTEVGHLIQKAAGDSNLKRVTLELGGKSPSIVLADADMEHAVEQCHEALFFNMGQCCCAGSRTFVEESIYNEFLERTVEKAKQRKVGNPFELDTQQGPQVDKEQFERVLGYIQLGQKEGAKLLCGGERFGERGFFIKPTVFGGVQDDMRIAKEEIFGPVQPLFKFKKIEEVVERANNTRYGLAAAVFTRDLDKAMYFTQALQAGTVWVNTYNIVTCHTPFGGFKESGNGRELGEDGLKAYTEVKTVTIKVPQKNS
Assay: ALDH1B1 enzyme kinetics assay (NADH fluorescence, acetaldehyde substrate)
Format: biochemical
Parameters: made in house; host or cells: E. coli BL21 (optionally co-expressed with GroEL/GroES)
Settings: 1 μg/mL enzyme, 1 mM acetaldehyde, 1 mM NAD+; read-out: ALDH1B1(in vitro) IC50
observation.type: IC50 (nM)

chemical.structure | test.value
COc1ccccc1N1C=C(c2ccc(-c3ccccc3)cc2)N2CCCCN=C21 | 81
COc1ccccc1C1=CN(c2ccc(-c3ccccc3)cc2)C2=NCCCCN12 | 47
CCOc1ccc(C2=CN(c3ccc(-c4ccccc4OC)cc3)C3=NCCCN23)c(OC)c1 | 130

====

Below, each of the molecules is paired with its reported IC50 value.
Biological target: ALDH1B1 (Homo sapiens, UniProt P30837)
Assay: ALDH1B1 enzyme kinetics assay (NADH fluorescence, acetaldehyde substrate)
Type: biochemical
Parameters: made in house; host or cells: E. coli BL21 (optionally co-expressed with GroEL/GroES)
Details: 1 μg/mL enzyme, 1 mM acetaldehyde, 1 mM NAD+; read-out: ALDH1B1(in vitro) IC50

molecule | target.of.assay | IC50 / nM
COc1ccccc1C1=CN(c2ccc(-c3ccccc3)cc2)C2=NCCCN12 [STL5-T-0002] | ALDH1B1 (Homo sapiens, UniProt P30837) | 120
CCOc1ccc(C2=CN(c3ccc(-c4ccccc4OC)cc3)C3=NCCCCN23)c(OC)c1 | ALDH1B1 (Homo sapiens, UniProt P30837) | 100
CCc1cc(Cl)ccc1C1=CN(c2ccc(-c3ccccc3CC)cc2)C2=NCCCN12 | ALDH1B1 (Homo sapiens, UniProt P30837) | 74
